Test system: UO-31 renal
assay.notes: NCI-60 one-dose screen, 48 h (100 = growth as untreated, 0 = no growth, -100 = all killed)
settings: 10 µM unless noted
About 83,000 compounds went through this panel and 20% of them were active in at least one assay; those are over-represented in the sample as a whole. Calls of active or inactive are those of the source. How the source made its calls: active means growth percent below 10; inactive means the rest.
Below: a set of entries, each annotated with reported growth.

# molecule, assayed.system, property, obs.value
rows = [
    ("COc1cc(-c2cc(-c3ccc(Nc4nc(Nc5ccc(Cl)cc5)nc(Nc5ccc(Cl)cc5)n4)cc3)no2)cc(OC)c1OC", "UO-31 renal", "growth", "61.6% (inactive)"),
    ("Brc1ccc(Nc2nc(Nc3cnc4ccccc4c3)c3[nH]cnc3n2)cc1", "UO-31 renal", "growth", "70.3% (inactive)"),
    ("CCN1C(=O)N(CC)C2C1NN=c1s/c(=C\\c3ccc(OC)cc3)c(=O)n12 (centres undefined)", "UO-31 renal", "growth", "39.3% (inactive)"),
    ("Clc1ccc(-c2cc(-c3ccccc3)nc(N3CCN(CCCNc4ccnc5cc(Cl)ccc45)CC3)n2)cc1", "UO-31 renal", "growth", "-52% (active)"),
    ("COC(=O)c1ccc2cc(OC)c(OC)cc2c1", "UO-31 renal", "growth", "100% (inactive)"),
]

Problem: Recorded growth for O=S(Nc1ccccc1)c1ccc(Cl)cc1 (centres undefined) , please?
Result: 85.7% (inactive)

Problem: # iterate: Cc1cc(=O)n(C(=S)Nc2ccc(Cl)cc2)c2cc(O)ccc12
Result: 72.2% (inactive)
